Measured target: HLA-B*0702 (human)
Assay overview: competition vs 125I-labelled probe peptide, purified HLA, gel filtration
Result type: IC50 (nM)
// units = nM; emit number, no label

> print(dat)
                                     binder  measured.number
1            FPTHDPSPI [Her2/neu.1101.F1I9]              108
2  FPYDGIPAREI (11-mer B7 supermotif analog of the HER2/neu peptide starting at position 921) [Her2/neu.921.F1I11]              141

Q) Entry under review: FPLAPSEGI (9-mer analog of the HER2/neu peptide starting at position 1073) [Her2/neu.1073.F1I9] . Reported IC50?
A) 100

Q) What measured IC50 goes with FPLPAARPI (9-mer analog of the HER2/neu peptide starting at position 1155) [Her2/neu.1155.F1I9] ?
A) 6.5
